inhibition reference
# Test system: tRNA 2'-phosphotransferase TPT1 (Candida albicans SC5314)
# assay_explanation: tRNA 2'-phosphotransferase blockers, C. albicans – biochemical, fluorescence polarization, primary screen (AID 1962);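 note: plate controls were DMSO alone for no effect and ferristatin control at 100 nM for full effect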
# details: recombinant caTPT1, FP RNA substrate dephosphorylation; at 5 µM; stronger effect = higher value
The whole screen tested about 300,000 compounds, of which about 2,500 (0.83%) were called active. For the sample, actives were picked, then their nearest neighbours and some compounds at random.
Return type: number; implicit unit %.

Below, 10 compounds whose answers are already recorded.
Cc1cccc(NS(=O)(=O)c2cc(Cl)ccc2Cl)n1 : -0.05
O=C(O)CCCC(=O)Nc1ccc(Oc2cccc(C(F)(F)F)c2)nc1 : -1.11
N#C/C(=C\c1ccc(N2CCOCC2)o1)C(=O)N1CCOCC1 : 153
CC(=O)c1sc(N/N=C\c2ccc(C)cc2)nc1C : 17.2
C[n+]1ccc(/C=C/c2c[nH]c3ccccc23)cc1 : 56
COc1ccccc1/C=N/Nc1nc(C)c(C(C)=O)s1 : 28
NC1=NC(=O)C(Cc2cccc(Cl)c2)S1 (stereo not given) : -2.15
CCOC(=O)N1CCN(C(=O)CSc2nc(=O)n3cccc(C)c3n2)CC1 : -1.52
O=C(O)C(c1ccccc1)N1C(=O)/C(=C\c2ccc(-c3cccc(Cl)c3)o2)SC1=S (stereo not given) : 134
N#C/C(=C/c1ccc(N2CCOCC2)o1)C(=O)N1CCOCC1 : 158

Please examine the following record next.
Data request, read-out inhibition, for CN1C(=O)/C(=C\c2ccc(-c3ccccc3)o2)SC1=S 47

====

# Test system: tRNA 2'-phosphotransferase TPT1 (Candida albicans SC5314)
# assay_explanation: tRNA 2'-phosphotransferase blockers, C. albicans – biochemical, fluorescence polarization, primary screen (AID 1962);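 note: plate controls were DMSO alone for no effect and ferristatin control at 100 nM for full effect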
# details: recombinant caTPT1, FP RNA substrate dephosphorylation; at 5 µM; stronger effect = higher value
Among all 300,000 compounds or so, about 2,500 (0.83%) were called active. The list comes from a sample in which actives are over-represented; it also holds close analogues and randomly drawn compounds.
observed_property: inhibition (%)
Return type: number; implicit unit %.

Cc1cccc(NC(=O)c2ccc(COc3ccccc3[N+](=O)[O-])o2)n1 : 31.1

Data request, read-out inhibition, for CCC(c1nnnn1Cc1ccco1)N(CCc1ccccc1)Cc1cc2ccc(OC)cc2[nH]c1=O (stereo unspecified) -2.34

Data request, read-out inhibition, for CCC(c1nnnn1Cc1ccccc1)N(Cc1cc2cc(OC)ccc2[nH]c1=O)CC1CCCO1 (stereo unspecified) -1.86

Data request, read-out inhibition, for CCN(CC)C(=O)CSC(Nc1cccc(F)c1)=C(C#N)C#N 62.4

Data request, read-out inhibition, for CCN(CC)C(=O)C(=O)Nc1cccc(Br)c1 -2.63

Data request, read-out inhibition, for CC(=O)c1cnc(SCC(=O)O)nc1C -5.63

Data request, read-out inhibition, for CCCCNc1ccc(C(=O)Nc2cccc(C)n2)cc1[N+](=O)[O-] 3.18

Data request, read-out inhibition, for CCC(c1nnnn1Cc1ccco1)N(Cc1cc2cc(OC)ccc2[nH]c1=O)C1CCCCC1 (stereo unspecified) 38.4

Data request, read-out inhibition, for Cc1ccc(CSCC(=O)N(C)CC(=O)Nc2cccc(F)c2)cc1 1.31

Data request, read-out inhibition, for COC(=O)Cn1cnc2scc(-c3ccc(C)c(C)c3)c2c1=O 1.3

Data request, read-out inhibition, for O=C(c1c(F)cccc1Cl)N1CCN(c2ccccn2)CC1 0.41
